I'd appreciate it if you could supply inhibition values for the items below.
target: Ribosomal protein S6 kinase alpha-5 (Homo sapiens) (UniProt O75582); assay: Inhibition of MSK1 (unknown origin) at 10 uM relative to control
Sequence (O75582 whole entry, looked up): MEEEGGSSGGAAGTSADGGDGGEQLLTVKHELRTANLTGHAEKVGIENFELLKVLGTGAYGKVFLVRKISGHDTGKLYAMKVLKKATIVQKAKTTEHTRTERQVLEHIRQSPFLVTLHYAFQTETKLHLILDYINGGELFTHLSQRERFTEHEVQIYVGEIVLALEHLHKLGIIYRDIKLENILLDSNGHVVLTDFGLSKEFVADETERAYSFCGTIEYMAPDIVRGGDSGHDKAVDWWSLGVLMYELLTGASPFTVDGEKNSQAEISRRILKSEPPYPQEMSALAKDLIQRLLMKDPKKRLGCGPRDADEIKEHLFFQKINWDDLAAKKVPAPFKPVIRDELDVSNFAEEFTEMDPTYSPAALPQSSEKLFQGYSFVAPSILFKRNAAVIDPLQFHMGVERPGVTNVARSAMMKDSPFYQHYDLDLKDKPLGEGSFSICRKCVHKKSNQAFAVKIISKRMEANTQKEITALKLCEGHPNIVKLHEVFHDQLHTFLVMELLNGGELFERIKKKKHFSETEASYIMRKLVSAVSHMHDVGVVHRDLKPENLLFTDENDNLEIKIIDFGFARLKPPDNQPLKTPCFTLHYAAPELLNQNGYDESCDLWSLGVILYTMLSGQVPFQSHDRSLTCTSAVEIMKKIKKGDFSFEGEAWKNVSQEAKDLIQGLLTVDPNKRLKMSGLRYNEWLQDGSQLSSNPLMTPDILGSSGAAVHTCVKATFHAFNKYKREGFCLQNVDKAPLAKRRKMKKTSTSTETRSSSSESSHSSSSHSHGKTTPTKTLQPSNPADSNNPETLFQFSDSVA
Give bare numbers, in %.

Use the examples below as a reference point.
{"record.smiles": "Cc1n[nH]c2ccnc(Nc3ccccc3F)c12", "reading": 43}
{"record.smiles": "Cc1n[nH]c2ccnc(OC3CCCCC3)c12", "reading": 92}
{"record.smiles": "Cc1n[nH]c2ccnc(Nc3ccc4ncsc4c3)c12", "reading": 77}

For the next question, use this compound.
For reference, reported inhibition for "Cc1n[nH]c2ccnc(NC3CCCCC3)c12" stands at 55

====

Can you tell me pIC50 for the items I'm about to list?
target: Leucine-rich repeat serine/threonine-protein kinase 2 (Homo sapiens, UniProt Q5S007, G2019S); experiment: Inhibition of recombinant human GST-tagged LRRK2 G2019S mutant catalytic domain (970 to 2527 residues) expressed in baculovirus expression system by radiometric assay
Sequence (Q5S007 whole entry G2019S, the tested form may be a part): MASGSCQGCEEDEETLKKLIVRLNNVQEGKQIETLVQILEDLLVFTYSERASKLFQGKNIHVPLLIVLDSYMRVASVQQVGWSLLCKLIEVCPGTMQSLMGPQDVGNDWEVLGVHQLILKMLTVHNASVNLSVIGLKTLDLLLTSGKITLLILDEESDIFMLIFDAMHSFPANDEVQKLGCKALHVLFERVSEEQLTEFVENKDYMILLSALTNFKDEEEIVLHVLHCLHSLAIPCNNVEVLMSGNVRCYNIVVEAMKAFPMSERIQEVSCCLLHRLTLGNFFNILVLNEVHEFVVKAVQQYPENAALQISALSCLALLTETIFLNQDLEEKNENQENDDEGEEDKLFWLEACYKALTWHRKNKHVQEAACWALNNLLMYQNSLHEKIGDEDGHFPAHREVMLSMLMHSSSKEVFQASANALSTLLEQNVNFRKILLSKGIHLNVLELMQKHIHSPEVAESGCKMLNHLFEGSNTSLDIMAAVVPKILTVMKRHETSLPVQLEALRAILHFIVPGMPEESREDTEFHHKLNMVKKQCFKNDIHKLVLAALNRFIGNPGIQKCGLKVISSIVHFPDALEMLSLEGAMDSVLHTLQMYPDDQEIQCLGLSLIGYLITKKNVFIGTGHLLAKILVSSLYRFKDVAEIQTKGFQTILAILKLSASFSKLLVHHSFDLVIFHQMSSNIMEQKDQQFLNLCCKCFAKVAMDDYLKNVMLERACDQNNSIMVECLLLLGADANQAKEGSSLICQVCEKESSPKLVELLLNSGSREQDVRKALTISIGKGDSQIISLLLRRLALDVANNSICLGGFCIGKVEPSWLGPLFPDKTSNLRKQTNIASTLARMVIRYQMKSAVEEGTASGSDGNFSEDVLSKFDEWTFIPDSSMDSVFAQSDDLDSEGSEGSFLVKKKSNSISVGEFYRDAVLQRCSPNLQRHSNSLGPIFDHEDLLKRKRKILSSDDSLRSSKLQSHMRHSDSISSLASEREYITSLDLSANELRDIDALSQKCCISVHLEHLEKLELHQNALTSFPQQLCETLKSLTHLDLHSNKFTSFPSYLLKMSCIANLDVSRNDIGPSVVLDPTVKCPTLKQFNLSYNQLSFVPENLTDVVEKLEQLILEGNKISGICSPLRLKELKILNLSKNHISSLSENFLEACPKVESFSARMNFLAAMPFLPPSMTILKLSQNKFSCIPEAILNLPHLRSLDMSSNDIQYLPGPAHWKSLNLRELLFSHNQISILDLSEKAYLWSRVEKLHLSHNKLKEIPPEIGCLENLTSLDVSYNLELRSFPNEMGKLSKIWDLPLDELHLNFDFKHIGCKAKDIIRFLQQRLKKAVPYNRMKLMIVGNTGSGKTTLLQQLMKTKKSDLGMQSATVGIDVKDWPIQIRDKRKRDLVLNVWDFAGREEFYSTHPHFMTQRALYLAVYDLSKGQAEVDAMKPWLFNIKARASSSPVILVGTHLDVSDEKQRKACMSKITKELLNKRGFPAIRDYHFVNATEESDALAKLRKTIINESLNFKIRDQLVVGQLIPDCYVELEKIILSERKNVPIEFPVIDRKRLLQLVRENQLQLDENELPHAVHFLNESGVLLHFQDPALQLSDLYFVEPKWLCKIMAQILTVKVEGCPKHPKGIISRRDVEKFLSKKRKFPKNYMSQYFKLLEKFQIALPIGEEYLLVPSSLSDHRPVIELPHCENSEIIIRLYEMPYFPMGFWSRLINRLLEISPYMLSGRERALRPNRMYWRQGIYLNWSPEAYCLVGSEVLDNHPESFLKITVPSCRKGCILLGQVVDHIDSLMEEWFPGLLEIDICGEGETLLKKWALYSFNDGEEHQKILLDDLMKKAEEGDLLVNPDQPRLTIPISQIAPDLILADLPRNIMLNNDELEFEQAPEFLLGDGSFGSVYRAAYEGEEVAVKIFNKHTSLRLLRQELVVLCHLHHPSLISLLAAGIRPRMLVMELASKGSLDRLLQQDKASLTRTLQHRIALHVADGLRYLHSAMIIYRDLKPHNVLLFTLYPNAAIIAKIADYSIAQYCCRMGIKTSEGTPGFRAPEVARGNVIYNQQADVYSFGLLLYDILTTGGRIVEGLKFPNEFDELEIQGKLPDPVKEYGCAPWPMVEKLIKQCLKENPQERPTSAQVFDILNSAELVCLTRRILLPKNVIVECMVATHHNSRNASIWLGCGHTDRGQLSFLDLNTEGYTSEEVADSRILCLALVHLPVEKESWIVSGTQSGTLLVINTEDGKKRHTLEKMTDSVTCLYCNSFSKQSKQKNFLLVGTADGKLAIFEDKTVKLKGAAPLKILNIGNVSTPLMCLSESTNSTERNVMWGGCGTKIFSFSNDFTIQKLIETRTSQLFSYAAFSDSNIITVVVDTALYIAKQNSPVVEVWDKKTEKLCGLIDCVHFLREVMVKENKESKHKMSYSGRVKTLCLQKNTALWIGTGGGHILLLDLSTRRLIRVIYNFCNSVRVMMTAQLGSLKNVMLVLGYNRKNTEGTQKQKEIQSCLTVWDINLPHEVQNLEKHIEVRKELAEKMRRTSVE
Numbers only, as −log10 of the molar value.

Provide each entry's pIC50 from the list below.
1. CC(C)Cn1cc(-c2n[nH]c3ccnc(OC4CCOCC4)c23)cn1
2. Cn1cc(-c2n[nH]c3ccnc(NC4CCCCC4)c23)cn1

Ans.
[7.82, 6.89]

I need pIC50 for every entry listed below, if you could help.
1. Cc1n[nH]c2ccnc(NC3CCC3)c12
2. Cc1n[nH]c2ccnc(Nc3cnn(C)c3)c12
3. Cc1n[nH]c2cncc(NC3CCCCC3)c12
4. CC[C@H](C)Nc1nccc2[nH]nc(C)c12
5. Cc1n[nH]c2ccnc(NC3CCOCC3)c12

Ans.
1: 6.28; 2: 6.08; 3: 6.11; 4: 6.52; 5: 6.72

====

assay: Stability in mouse liver microsomes assessed as compound turnover rate measured after 30 mins; type: ADME, Microsome; conditions: read-out: Drug metabolism
Would you please tag the item Criterion met when its metabolised at 0.5 h is 20% or above, and Criterion not met when it is below?

{"record.smiles": "Cc1n[nH]c2ccnc(OC3CCC3)c12", "label.class": "Criterion met"}
{"record.smiles": "CC[C@H](C)Nc1nccc2[nH]nc(C)c12", "label.class": "Criterion not met"}
{"record.smiles": "Cc1n[nH]c2ccnc(NC3CCCCC3)c12", "label.class": "Criterion not met"}
{"record.smiles": "Cc1n[nH]c2ccnc(NC3CCOCC3)c12", "label.class": "Criterion not met"}
{"record.smiles": "Cc1n[nH]c2ccnc(O[C@@H]3CCOC3)c12", "label.class": "Criterion not met"}
{"record.smiles": "CC(C)n1cc(-c2n[nH]c3ccnc(NC4CCCCC4)c23)cn1", "label.class": "Criterion met"}

Qu. API: above_or_equal(metric=metabolised at 0.5 h, cutoff=20%) for item "Cn1cc(-c2n[nH]c3ccnc(NC4CCCCC4)c23)cn1"
Ans. Criterion not met

Qu. Has "c1cc(-c2n[nH]c3ccnc(OC4CCOCC4)c23)cc(N2CCOCC2)n1" a recorded metabolised at 0.5 h greater than or equal to 20%?
Ans. Criterion not met

Qu. Does the reported metabolised at 0.5 h for "Cc1n[nH]c2ccnc(OC3CCCCC3)c12" fall at or above the 20% mark?
Ans. Criterion met

Qu. Determine whether measured metabolised at 0.5 h meets or exceeds 20% for "Cc1ccc(Nc2nccc3[nH]nc(C)c23)cc1"
Ans. Criterion met

Qu. Decide: is the reported value of metabolised at 0.5 h for "Cc1n[nH]c2ccnc(OC3CCCC3)c12" equal to or greater than 20%?
Ans. Criterion met

Qu. Record "CC(C)n1cc(-c2n[nH]c3ccnc(OC4CCCCC4)c23)cn1" ; criterion: metabolised at 0.5 h no lower than 20%. Met?
Ans. Criterion met

====

target: Leucine-rich repeat serine/threonine-protein kinase 2 (Homo sapiens, UniProt Q5S007, G2019S); experiment: Inhibition of recombinant human GST-tagged LRRK2 G2019S mutant catalytic domain (970 to 2527 residues) expressed in baculovirus expression system by radiometric assay
experimental.readout: pIC50
One number for each entry, as −log10 of the molar value.

{"record.smiles": "Cc1ccc(Nc2nccc3[nH]nc(C)c23)cc1", "experimental.readout": "pIC50", "reading": 7.01}

Could you report pIC50 for every entry in the following list?
1. CC(C)n1cc(-c2n[nH]c3ccnc(NC4CCCCC4)c23)cn1
2. Cc1n[nH]c2ccnc(Nc3ccccc3F)c12

Ans.
1: 6.96; 2: 6.82

====

Exercise: state measured metabolised at 0.5 h for each of the molecules provided.
assay: Stability in mouse liver microsomes assessed as compound turnover rate measured after 30 mins; type: ADME, Microsome; settings: read-out: Drug metabolism
Answers are plain numbers, in %.

{"record.smiles": "CC(C)n1cc(-c2n[nH]c3ccnc(OC4CCOCC4)c23)cn1", "reading": 20}
{"record.smiles": "Cc1n[nH]c2ccnc(NC3CCCC3)c12", "reading": 10}

Report metabolised at 0.5 h for every entry below.
1. c1cc(-c2n[nH]c3ccnc(NC4CCOCC4)c23)cc(N2CCOCC2)n1
2. Cc1n[nH]c2ccnc(OC(C)C)c12

Ans.
11
24
